# System: Staphylococcus aureus
# Protocol notes: Antibacterial activity against methicillin-resistant Staphylococcus aureus USA300 after 20 hrs by microdilution method
# Format: functional
# Conditions used: USA300, 20 h
Measured MIC accompanies every entry in the list below.
Give the quantity in µM, number only.

[[record]]
mol_smiles = "CCC(CC)(c1c[nH]c2cc(C3=NCCN3)ccc12)c1c[nH]c2cc(C3=NCCN3)ccc12.CS(=O)(=O)O.CS(=O)(=O)O"
measured_quantity = "MIC"
unit_info = "µM"
value_observed = 6.2

[[record]]
mol_smiles = "CC(C)(c1c[nH]c2cc(C3=NCCN3)ccc12)c1c[nH]c2cc(C3=NCCN3)ccc12.CS(=O)(=O)O.CS(=O)(=O)O"
measured_quantity = "MIC"
unit_info = "µM"
value_observed = 25

[[record]]
mol_smiles = "CCCCCCCCCC(=O)N[C@@H](Cc1c[nH]c2ccccc12)C(=O)N[C@@H](CC(N)=O)C(=O)N[C@@H](CC(=O)O)C(=O)N[C@@H]1C(=O)NCC(=O)N[C@@H](CCCN)C(=O)N[C@@H](CC(=O)O)C(=O)N[C@H](C)C(=O)N[C@@H](CC(=O)O)C(=O)NCC(=O)N[C@H](CO)C(=O)N[C@@H]([C@H](C)CC(=O)O)C(=O)N[C@@H](CC(=O)c2ccccc2N)C(=O)O[C@@H]1C"
measured_quantity = "MIC"
unit_info = "µM"
value_observed = 0.78

[[record]]
mol_smiles = "Cl.Clc1cccc(Cl)c1C(c1c[nH]c2ccc(C3=NCCN3)cc12)c1c[nH]c2ccc(C3=NCCN3)cc12"
measured_quantity = "MIC"
unit_info = "µM"
value_observed = 12.5

[[record]]
mol_smiles = "CS(=O)(=O)O.CS(=O)(=O)O.c1cc2c(Cc3c[nH]c4cc(C5=NCCN5)ccc34)c[nH]c2cc1C1=NCCN1"
measured_quantity = "MIC"
unit_info = "µM"
value_observed = 50


Quick check: MIC of CS(=O)(=O)O.CS(=O)(=O)O.c1cc2c(C(c3c[nH]c4cc(C5=NCCN5)ccc34)C3CCCCC3)c[nH]c2cc1C1=NCCN1 ?
3.1

Quick check: MIC of CS(=O)(=O)O.CS(=O)(=O)O.c1cc2c(C3(c4c[nH]c5cc(C6=NCCN6)ccc45)CCCCC3)c[nH]c2cc1C1=NCCN1 ?
6.2
